// IN-GCN2 interaction (%) lookup, one value per entry
test_system: IN-GCN2 interaction (6xHis-IN / GST-GCN2) (UniProt P04585+Q9P2K8)
Sequence (Q9P2K8 192-1024, other chains not shown): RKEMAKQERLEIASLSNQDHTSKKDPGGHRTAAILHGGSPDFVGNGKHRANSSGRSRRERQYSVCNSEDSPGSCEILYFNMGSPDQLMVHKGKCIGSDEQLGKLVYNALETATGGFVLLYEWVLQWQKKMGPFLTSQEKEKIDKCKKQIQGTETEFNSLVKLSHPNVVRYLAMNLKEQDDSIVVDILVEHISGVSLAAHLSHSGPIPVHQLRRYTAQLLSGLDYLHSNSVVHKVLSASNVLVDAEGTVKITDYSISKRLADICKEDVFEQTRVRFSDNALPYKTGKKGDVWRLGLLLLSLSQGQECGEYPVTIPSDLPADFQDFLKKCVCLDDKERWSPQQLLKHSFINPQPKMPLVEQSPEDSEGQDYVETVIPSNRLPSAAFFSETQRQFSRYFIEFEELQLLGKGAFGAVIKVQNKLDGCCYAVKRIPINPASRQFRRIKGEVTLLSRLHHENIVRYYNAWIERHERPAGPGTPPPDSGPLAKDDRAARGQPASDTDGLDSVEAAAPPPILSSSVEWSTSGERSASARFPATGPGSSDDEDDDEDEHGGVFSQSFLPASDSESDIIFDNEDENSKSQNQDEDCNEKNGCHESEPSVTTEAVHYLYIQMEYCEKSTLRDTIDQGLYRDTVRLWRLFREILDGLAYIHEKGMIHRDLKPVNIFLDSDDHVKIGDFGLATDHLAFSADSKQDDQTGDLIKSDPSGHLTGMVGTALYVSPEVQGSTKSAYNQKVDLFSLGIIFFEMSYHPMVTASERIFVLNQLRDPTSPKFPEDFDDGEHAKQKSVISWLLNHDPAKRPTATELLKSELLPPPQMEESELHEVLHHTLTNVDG
assay_details: biochemical
Assay type: binding, HIV-1 IN; human GCN2
conditions: screen, single dose 100 µM, single replicate; residual AlphaLISA signal normalized to DMSO control
Response body: numeric value in %, unit text excluded.

CC[C@H]1NC(=O)[C@@H](NC(=O)c2ncccc2O)[C@@H](C)OC(=O)[C@H](c2ccccc2)NC(=O)[C@@H]2CC(=O)CCN2C(=O)[C@H](Cc2ccccc2)N(C)C(=O)[C@@H]2CCCN2C1=O [NSC177858]    35.20
CN1CCc2cc3c(cc2C(=O)Cc2ccc4c(c2C1)OCO4)OCO3.Cl [NSC11440]    160.70
COc1cc([C@@H]2c3cc4c(c(O)c3C[C@H]3COC(=O)[C@@H]32)OCO4)cc(OC)c1OC [NSC24819]    89.45
Br.C=CC1CN2CCC1CC2C(O)c1ccnc2ccc(OC)cc12 (stereo not shown) [NSC12865]    97.92
COC(=O)[C@@H]1[C@H]2C[C@@H]3c4[nH]c5ccccc5c4CCN3C[C@@H]2CC[C@@H]1O [NSC72116]    99.30
COc1cc([C@H]2c3cc(O)c(OC)cc3C[C@H]3C(=O)OC[C@H]23)ccc1O [NSC4586]    86.55

Then there is this compound:
Inquiry: Dear colleague, I am looking for the recorded IN-GCN2 interaction (%) of the following compound: CC1=C2[C@H]3OC(=O)[C@@H](C)[C@@H]3CC[C@@]2(C)C=C/C1=N\O [NSC42038]
Reply text: 112.40
